# Test system: Hepatotoxicity
# Experiment description: FDA HLAED, alkaline phosphatase increase
# Stated conditions: human
Listed below: Alkaline Phosphatase Increase - Index Value values for each entry.

Some solved cases for reference:
| Compound | Observed value |
| --- | --- |
| CC(CCc1ccccc1)NCC(O)c1ccc(O)c(C(N)=O)c1 (centres undefined) | 0.9 |
| Cc1ccc(-c2nc3ccc(C)cn3c2CC(=O)N(C)C)cc1 | 3 |

Request: Note down Alkaline Phosphatase Increase - Index Value recorded for O=c1[nH]c2ccccc2n1C1CCN(CCCC(c2ccc(F)cc2)c2ccc(F)cc2)CC1 [PIMOZIDE]
Result: 17.6

Request: Note down Alkaline Phosphatase Increase - Index Value recorded for Nc1nnc(-c2cccc(Cl)c2Cl)c(N)n1
Result: 0.5

Request: Note down Alkaline Phosphatase Increase - Index Value recorded for CC(=O)OCC(CCn1cnc2cnc(N)nc21)COC(C)=O
Result: 0

Request: Note down Alkaline Phosphatase Increase - Index Value recorded for CCC1(c2ccc(N)cc2)CCC(=O)NC1=O (centres undefined) [AMINOGLUTETHIMIDE]
Result: 0

Request: Note down Alkaline Phosphatase Increase - Index Value recorded for CCOC(=O)c1ncn2c1CN(C)C(=O)c1cc(F)ccc1-2
Result: 0

Request: Note down Alkaline Phosphatase Increase - Index Value recorded for OCc1cc(C(O)CNCCCCCCOCCCCc2ccccc2)ccc1O (centres undefined)
Result: 0

Request: Note down Alkaline Phosphatase Increase - Index Value recorded for CCN[C@@H]1C[C@H](N)[C@@H](O[C@H]2OC(CN)=CC[C@H]2N)[C@H](O)[C@H]1O[C@H]1OC[C@](C)(O)[C@H](NC)[C@H]1O
Result: 0

---

# Test system: Hepatotoxicity
# Experiment description: FDA HLAED, serum glutamic pyruvic transaminase (SGPT) increase
# Stated conditions: human
Reported metric: SGPT Increase - Activity Score

Some solved cases for reference:
| Compound | Reported metric | Observed value |
| --- | --- | --- |
| C=C1c2c(Cl)ccc(O)c2C(=O)C2=C(O)[C@]3(O)C(=O)C(C(N)=O)=C(O)[C@@H](N(C)C)[C@@H]3[C@@H](O)[C@H]12 [MECLOCYCLINE] | SGPT Increase - Activity Score | Inactive |
| Cn1c(=O)c2[nH]cnc2n(C)c1=O.O [THEOPHYLLINE] | SGPT Increase - Activity Score | Inactive |
| COCC(=O)Nc1c(I)c(C(=O)NCC(O)CO)c(I)c(C(=O)N(C)CC(O)CO)c1I (configuration not stated) [IOPROMIDE] | SGPT Increase - Activity Score | Inactive |
| C[N+](C)(C)C[C@H](O)CC(=O)[O-] [LEVOCARNITINE] | SGPT Increase - Activity Score | Inactive |
| COc1ccc2cc([C@H](C)C(=O)O)ccc2c1 [NAPROXEN] | SGPT Increase - Activity Score | Inactive |

Request: Note down SGPT Increase - Activity Score recorded for CN[C@H]1CC[C@@H](c2ccc(Cl)c(Cl)c2)c2ccccc21 [SERTRALINE]
Result: Inactive

Request: Note down SGPT Increase - Activity Score recorded for Clc1ccccc1CN1CCc2sccc2C1 [TICLOPIDINE]
Result: Inactive

Request: Note down SGPT Increase - Activity Score recorded for O=C1C(O)=C([C@H]2CC[C@H](c3ccc(Cl)cc3)CC2)C(=O)c2ccccc21 [ATOVAQUONE]
Result: Inactive

Request: Note down SGPT Increase - Activity Score recorded for FC(F)OC(Cl)C(F)(F)F (configuration not stated) [ISOFLURANE]
Result: Inactive

Request: Note down SGPT Increase - Activity Score recorded for Nc1nc(F)nc2c1ncn2[C@@H]1O[C@H](CO)[C@@H](O)[C@@H]1O [FLUDARABINE]
Result: Active

Request: Note down SGPT Increase - Activity Score recorded for CC1Cc2ccccc2N1NC(=O)c1ccc(Cl)c(S(N)(=O)=O)c1 (configuration not stated) [INDAPAMIDE]
Result: Inactive
